Biological target: Virion infectivity factor (Human immunodeficiency virus type 1 group M subtype B (isolate BH10)) + Virion infectivity factor (Human immunodeficiency virus type 1 group M subtype B (isolate BRU/LAI)) + Virion infectivity factor (Human immunodeficiency virus type 1 group M subtype B (isolate PCV12)) + Virion infectivity factor (Human immunodeficiency virus type 1 group M subtype B (isolate HXB2)) + DNA dC->dU-editing enzyme APOBEC-3G (Homo sapiens) (UniProt P69720+P69721+P69722+P69723+Q9HC16)
Assay: inhibitors of Vif binding to APOBEC3G peptide, primary screen, biochemical, TR-FRET, GST-Vif 1-94, biotin-A3G peptide, dose response retest (AID 1117319);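 further: Vif residues 1-94 fused to GST binding biotinylated APOBEC3G peptide 110-148; 0% = full assay without inhibitor and 100% = GST in place of GST-Vif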
Conditions: stronger effect = higher value
About 1,500 (0.58%) of roughly 260,000 compounds were called active. Roughly 5% stayed inconclusive and do not appear here. These entries were drawn from the full list. Entries with a potency or affinity are not part of this list.
Parameter: inhibition. Scope: all listed entries.
EXPERIMENTAL ENDPOINT: inhibition

>  <COMPOUND>
O=C(c1cccc(F)c1)N1CCCC(C(=O)N2CCCC2)C1 (stereo not drawn)

>  <DATA VALUE>
-3.84% (inactive)

$$$$
>  <COMPOUND>
Cc1c(Cl)cccc1Nc1nc(N)nc(CSC(=S)N2CCOCC2)n1

>  <DATA VALUE>
0.88% (inactive)

$$$$
>  <COMPOUND>
CCOc1ccc(C2C(C(=O)OC)=C(C)N=C3SCCC(=O)N32)cc1OCC (stereo not drawn)

>  <DATA VALUE>
-1.89% (inactive)

$$$$
>  <COMPOUND>
COc1ccc(OCC(O)CN(C)C(=O)/C=C/c2cccc([N+](=O)[O-])c2)cc1 (stereo not drawn)

>  <DATA VALUE>
-4.1% (inactive)

$$$$
>  <COMPOUND>
COc1ccc(NC(=O)c2cnc3n(c2=O)CCS3)cc1OC

>  <DATA VALUE>
10.7% (inactive)

$$$$
>  <COMPOUND>
Cc1ncc(CO)c(/C=N/NC(=O)c2cc(Br)ccc2O)c1O

>  <DATA VALUE>
11% (inactive)

$$$$
>  <COMPOUND>
CCN(CC)S(=O)(=O)c1cccc(NC(=O)C2SC(=Nc3ccc(C)cc3C)C(C(=O)NCC3CCCO3)=C2N)c1 (stereo not drawn)

>  <DATA VALUE>
2.72% (inactive)

$$$$
>  <COMPOUND>
O=C(O)/C=C/C(=O)Nc1ccc(SC(F)(F)C(F)(F)C(F)(F)F)cc1

>  <DATA VALUE>
-1.48% (inactive)

$$$$
>  <COMPOUND>
CCOC(=O)N1CCN(C(=O)C2CCCCC2)CC1

>  <DATA VALUE>
-1.05% (inactive)

$$$$
>  <COMPOUND>
O=C(CSc1nnc(CCCO)n1-c1ccccc1)Nc1nccs1

>  <DATA VALUE>
-0.69% (inactive)

$$$$
>  <COMPOUND>
CC(OC(=O)c1n[nH]c2ccccc12)C(=O)NC1CCCCC1C (stereo not drawn)

>  <DATA VALUE>
1.37% (inactive)

$$$$
>  <COMPOUND>
CC(=O)Nc1ccc(OCC(O)CN2CCN(c3ccc(Cl)cc3)CC2)cc1 (stereo not drawn)

>  <DATA VALUE>
22.8% (inactive)

$$$$
>  <COMPOUND>
CCN(CC)CCN=C1CCCc2ccccc2N1

>  <DATA VALUE>
0.69% (inactive)

$$$$
>  <COMPOUND>
O=C(CC1Nc2cccc3cccc(c23)NC1=O)Nc1ccc(F)cc1 (stereo not drawn)

>  <DATA VALUE>
19.5% (inactive)

$$$$
>  <COMPOUND>
O=[N+]([O-])c1ccc(N=Nc2ccc(O)cc2O)cc1

>  <DATA VALUE>
27.8% (inactive)

$$$$
>  <COMPOUND>
Cc1c(Br)c(=O)oc2c(C)c(O)ccc12

>  <DATA VALUE>
-26.6% (inactive)

$$$$
>  <COMPOUND>
COc1ccc(CCNc2cc(C)nc3c(-c4ccccc4OC)cnn23)cc1OC

>  <DATA VALUE>
3.45% (inactive)

$$$$
>  <COMPOUND>
CNC(=O)C(=O)N/N=C/c1ccc(Br)cc1

>  <DATA VALUE>
17.2% (inactive)

$$$$
>  <COMPOUND>
O=C(NC(=S)Nc1cc(-c2nc3ccccc3[nH]2)ccc1Cl)c1ccc2c(c1)OCO2

>  <DATA VALUE>
6.14% (inactive)

$$$$
>  <COMPOUND>
CN(Cc1cnc2nc(N)nc(N)c2n1)c1ccc(C(=O)NC(CCC(=O)O)C(=O)O)cc1C(F)(F)F (stereo not drawn)

>  <DATA VALUE>
4.16% (inactive)

$$$$
>  <COMPOUND>
CC(=O)Nc1ccc(NC(=O)CC2Nc3cccc4cccc(c34)NC2=O)cc1 (stereo not drawn)

>  <DATA VALUE>
18% (inactive)

$$$$
>  <COMPOUND>
Cc1c(Br)c(=O)oc2c(Br)c(O)ccc12

>  <DATA VALUE>
-6.73% (inactive)

$$$$
>  <COMPOUND>
Cc1cc2ccccn2c1C(=O)c1nc(NCc2ccccc2)ncc1Cl

>  <DATA VALUE>
-3.29% (inactive)

$$$$
